Measured % activity of individual entries
# target_of_assay: WNK3(h) (Homo sapiens, UniProt Q9BYP7)
# Sequence (Q9BYP7 whole entry): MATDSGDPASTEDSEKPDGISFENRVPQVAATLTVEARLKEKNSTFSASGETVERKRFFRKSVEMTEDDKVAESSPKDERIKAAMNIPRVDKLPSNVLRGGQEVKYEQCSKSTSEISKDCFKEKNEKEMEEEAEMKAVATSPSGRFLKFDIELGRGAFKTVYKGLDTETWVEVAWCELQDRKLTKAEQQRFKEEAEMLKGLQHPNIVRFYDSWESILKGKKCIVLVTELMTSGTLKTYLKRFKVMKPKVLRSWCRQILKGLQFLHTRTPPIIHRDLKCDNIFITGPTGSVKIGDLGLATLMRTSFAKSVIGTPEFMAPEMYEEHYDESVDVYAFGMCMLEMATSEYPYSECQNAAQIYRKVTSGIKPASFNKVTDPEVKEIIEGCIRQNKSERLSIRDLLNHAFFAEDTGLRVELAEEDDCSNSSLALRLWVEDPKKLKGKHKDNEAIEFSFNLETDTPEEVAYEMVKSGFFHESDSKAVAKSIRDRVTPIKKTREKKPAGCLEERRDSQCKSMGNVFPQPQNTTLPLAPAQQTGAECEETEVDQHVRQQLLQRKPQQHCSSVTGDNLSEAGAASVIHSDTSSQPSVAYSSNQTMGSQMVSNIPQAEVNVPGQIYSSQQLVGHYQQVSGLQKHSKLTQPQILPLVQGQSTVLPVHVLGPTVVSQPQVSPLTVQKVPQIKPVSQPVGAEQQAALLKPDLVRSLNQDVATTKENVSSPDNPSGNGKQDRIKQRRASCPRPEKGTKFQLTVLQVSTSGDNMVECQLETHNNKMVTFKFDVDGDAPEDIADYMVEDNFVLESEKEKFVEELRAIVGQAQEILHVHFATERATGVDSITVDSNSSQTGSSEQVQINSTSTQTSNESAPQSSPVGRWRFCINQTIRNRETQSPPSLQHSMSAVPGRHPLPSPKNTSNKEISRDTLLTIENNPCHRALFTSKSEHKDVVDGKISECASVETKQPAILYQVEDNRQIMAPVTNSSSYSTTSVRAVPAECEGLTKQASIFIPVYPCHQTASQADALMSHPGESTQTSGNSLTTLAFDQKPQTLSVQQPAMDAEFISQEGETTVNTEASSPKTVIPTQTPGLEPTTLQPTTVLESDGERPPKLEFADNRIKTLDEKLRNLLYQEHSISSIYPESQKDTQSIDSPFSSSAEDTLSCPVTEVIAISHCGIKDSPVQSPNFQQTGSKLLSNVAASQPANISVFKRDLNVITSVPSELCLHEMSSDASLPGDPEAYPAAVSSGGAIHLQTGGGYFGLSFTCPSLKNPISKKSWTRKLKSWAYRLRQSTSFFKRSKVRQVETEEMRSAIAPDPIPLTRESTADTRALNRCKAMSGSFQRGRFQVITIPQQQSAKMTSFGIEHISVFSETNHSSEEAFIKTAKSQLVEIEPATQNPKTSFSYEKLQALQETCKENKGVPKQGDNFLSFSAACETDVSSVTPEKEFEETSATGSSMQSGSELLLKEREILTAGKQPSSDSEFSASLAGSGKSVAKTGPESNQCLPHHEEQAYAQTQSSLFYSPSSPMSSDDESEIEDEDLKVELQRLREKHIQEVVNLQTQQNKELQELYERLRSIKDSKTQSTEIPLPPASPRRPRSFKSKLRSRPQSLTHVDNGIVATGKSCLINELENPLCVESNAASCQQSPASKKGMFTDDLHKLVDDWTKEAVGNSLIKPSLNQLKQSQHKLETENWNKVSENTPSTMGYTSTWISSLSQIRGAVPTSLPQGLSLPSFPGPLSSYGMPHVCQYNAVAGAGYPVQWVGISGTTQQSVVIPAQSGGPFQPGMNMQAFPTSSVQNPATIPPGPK
# test_summary: Kinase Profiling Assay
# Assay type: biochemical
# test_parameters: peptide 100 μM
No end group written: not given here.

# biopolymer_sequence, % activity, %
records = [
    ("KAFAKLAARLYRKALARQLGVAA [MMI-0400]", 74),
    ("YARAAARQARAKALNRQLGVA (Mammal) [MMI-0200]", 97),
    ("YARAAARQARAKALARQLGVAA [MMI-0100]", 100),
    ("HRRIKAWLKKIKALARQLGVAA (Mammal) [MMI-0500]", 9),
    ("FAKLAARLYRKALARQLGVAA [MMI-0300]", 77),
]

----------
Measured % activity of individual entries
# target_of_assay: LOK(h) (Homo sapiens)
# Construct: purchased Millipore
# Sequence (O94804 whole entry): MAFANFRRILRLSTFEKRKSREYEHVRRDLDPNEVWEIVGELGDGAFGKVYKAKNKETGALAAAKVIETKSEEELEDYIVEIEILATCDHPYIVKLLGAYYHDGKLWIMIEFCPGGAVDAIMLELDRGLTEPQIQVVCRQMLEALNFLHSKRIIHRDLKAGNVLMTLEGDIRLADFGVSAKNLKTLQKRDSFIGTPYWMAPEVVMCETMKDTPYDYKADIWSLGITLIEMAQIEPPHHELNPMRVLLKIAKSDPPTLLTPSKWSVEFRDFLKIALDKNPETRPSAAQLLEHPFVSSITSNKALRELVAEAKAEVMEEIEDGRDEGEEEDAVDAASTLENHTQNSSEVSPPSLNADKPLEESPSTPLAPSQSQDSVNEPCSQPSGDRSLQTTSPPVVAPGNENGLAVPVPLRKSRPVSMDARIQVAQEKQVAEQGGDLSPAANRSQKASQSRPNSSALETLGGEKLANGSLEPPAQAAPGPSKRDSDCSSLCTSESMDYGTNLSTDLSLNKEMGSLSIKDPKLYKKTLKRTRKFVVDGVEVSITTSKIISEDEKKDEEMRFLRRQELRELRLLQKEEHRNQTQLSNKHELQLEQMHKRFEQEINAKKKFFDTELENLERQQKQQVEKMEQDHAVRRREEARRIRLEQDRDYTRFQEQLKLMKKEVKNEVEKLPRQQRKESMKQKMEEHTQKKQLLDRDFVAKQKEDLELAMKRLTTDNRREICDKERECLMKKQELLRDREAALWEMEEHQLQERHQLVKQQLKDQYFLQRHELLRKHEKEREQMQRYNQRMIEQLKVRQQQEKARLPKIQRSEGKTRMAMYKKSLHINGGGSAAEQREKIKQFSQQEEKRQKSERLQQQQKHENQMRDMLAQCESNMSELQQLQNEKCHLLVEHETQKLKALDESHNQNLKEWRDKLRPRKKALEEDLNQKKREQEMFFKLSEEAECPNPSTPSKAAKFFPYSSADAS
# test_summary: Kinase Profiling Assay
# Assay type: biochemical
# test_parameters: peptide 100 μM
No end group written: not given here.

# biopolymer_sequence, % activity, %
rows = [
    ("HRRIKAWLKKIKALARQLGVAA (Mammal) [MMI-0500]", 7),
    ("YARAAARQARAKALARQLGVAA [MMI-0100]", 37),
    ("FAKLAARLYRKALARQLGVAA [MMI-0300]", 37),
    ("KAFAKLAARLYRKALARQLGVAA [MMI-0400]", 18),
    ("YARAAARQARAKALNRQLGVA (Mammal) [MMI-0200]", 67),
]

----------
# target_of_assay: Ret(h) (Homo sapiens, UniProt P07949)
# test_summary: Kinase Profiling Assay
# Format: biochemical
# test_parameters: peptide 100 μM
No end group written: not given here.
outcome_measure: % activity (%)

# biopolymer_sequence, assay_value
records = [
    ("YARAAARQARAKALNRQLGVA (Mammal) [MMI-0200]", 96),
    ("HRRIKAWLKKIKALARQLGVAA (Mammal) [MMI-0500]", 174),
    ("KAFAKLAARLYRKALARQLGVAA [MMI-0400]", 145),
    ("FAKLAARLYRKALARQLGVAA [MMI-0300]", 140),
    ("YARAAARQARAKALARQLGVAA [MMI-0100]", 108),
]

----------
# target_of_assay: CK2(h) (Homo sapiens, UniProt P68400)
# Sequence (P68400 whole entry): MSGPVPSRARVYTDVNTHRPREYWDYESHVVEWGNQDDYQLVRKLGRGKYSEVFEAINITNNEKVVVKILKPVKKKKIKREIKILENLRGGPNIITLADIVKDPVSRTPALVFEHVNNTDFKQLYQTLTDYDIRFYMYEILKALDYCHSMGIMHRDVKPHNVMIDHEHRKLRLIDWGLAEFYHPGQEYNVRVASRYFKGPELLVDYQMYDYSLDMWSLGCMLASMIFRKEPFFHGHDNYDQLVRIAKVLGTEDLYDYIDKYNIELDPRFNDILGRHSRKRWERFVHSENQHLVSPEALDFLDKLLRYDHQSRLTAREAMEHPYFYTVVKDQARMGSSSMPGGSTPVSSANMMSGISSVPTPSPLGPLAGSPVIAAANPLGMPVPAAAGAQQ
# Sequence (P67870 whole entry partner): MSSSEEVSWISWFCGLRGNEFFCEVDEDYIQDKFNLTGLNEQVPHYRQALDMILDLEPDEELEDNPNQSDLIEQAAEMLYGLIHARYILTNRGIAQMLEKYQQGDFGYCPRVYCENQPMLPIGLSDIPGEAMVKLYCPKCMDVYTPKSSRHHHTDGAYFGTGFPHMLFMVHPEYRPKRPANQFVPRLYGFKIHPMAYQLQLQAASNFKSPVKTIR
# test_summary: Kinase Profiling Assay
# Format: biochemical
# test_parameters: peptide 100 μM
outcome_measure: % activity (%)

# biopolymer_sequence, outcome_measure, assay_value
rows = [
    ("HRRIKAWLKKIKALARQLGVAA (Mammal) [MMI-0500]", "% activity", 93),
    ("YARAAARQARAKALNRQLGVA (Mammal) [MMI-0200]", "% activity", 83),
    ("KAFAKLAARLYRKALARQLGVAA [MMI-0400]", "% activity", 101),
    ("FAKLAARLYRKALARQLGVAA [MMI-0300]", "% activity", 90),
]

----------
# target_of_assay: Pyk2(h) (Homo sapiens, UniProt Q14289)
# Sequence (Q14289 whole entry): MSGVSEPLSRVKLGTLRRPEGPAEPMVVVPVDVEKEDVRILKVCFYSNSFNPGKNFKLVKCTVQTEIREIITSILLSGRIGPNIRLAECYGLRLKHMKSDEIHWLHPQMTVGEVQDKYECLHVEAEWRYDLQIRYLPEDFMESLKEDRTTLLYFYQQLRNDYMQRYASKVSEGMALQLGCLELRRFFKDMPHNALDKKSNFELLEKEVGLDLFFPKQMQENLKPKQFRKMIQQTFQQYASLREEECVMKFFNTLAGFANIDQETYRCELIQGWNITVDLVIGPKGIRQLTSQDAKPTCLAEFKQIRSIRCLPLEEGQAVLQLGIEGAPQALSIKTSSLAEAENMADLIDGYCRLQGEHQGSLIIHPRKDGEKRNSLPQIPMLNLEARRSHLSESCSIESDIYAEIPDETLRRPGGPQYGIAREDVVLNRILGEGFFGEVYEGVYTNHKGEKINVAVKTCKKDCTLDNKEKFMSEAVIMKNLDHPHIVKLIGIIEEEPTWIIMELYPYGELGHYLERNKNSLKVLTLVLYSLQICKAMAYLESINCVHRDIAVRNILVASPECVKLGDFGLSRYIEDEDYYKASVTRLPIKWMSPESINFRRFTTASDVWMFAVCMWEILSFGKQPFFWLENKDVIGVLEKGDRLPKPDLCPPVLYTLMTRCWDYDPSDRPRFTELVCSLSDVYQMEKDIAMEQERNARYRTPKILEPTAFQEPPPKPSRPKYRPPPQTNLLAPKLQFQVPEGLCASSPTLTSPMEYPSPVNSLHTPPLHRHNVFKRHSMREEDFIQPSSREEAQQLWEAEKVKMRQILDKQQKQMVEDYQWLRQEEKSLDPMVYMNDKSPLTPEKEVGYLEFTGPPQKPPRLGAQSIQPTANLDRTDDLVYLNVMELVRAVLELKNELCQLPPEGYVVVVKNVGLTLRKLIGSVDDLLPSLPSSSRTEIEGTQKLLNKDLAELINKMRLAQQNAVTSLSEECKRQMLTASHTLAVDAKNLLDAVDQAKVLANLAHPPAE
# test_summary: Kinase Profiling Assay
# Format: biochemical
# test_parameters: peptide 100 μM
Measured % activity of individual entries
outcome_measure: % activity

# biopolymer_sequence, assay_value
records = [
    ("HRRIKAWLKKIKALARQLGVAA (Mammal) [MMI-0500]", "46%"),
    ("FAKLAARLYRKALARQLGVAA [MMI-0300]", "47%"),
    ("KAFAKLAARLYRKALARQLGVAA [MMI-0400]", "34%"),
    ("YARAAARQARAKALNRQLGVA (Mammal) [MMI-0200]", "127%"),
]
